The entries below come with measured normalized growth values attached.
Assay: chemical genetic growth profiling, strain panel (AID 1159580);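 note: tested at 20 µM; growth read once vehicle control cultures reached saturation at 30 °C; 1 = growth at the plate median or of vehicle wells; lower values mean less growth of the strain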
Settings: S. cerevisiae deletion strains, growth OD, locus YLR384C, strain iki3, hits give low values
Hit rate of the full screen: of about 5,500 compounds, about 2,000 (36%) were called active. Roughly 18% stayed inconclusive and do not appear here. Some of the results follow.
Could you keep your reply to the number by itself?

// known answers, use as guide
{"columns": ["compound", "measurement"],
 "data": [
  ["CC(=O)NC1SCCC1=O (stereo not given)", 0.979],
  ["CC(=O)OCC(=O)[C@@]1(O)CCC2C3CCC4=CC(=O)CC[C@]4(C)C3C(=O)C[C@@]21C (stereo not given in full)", 0.974],
  ["CC(=O)OCC(=O)[C@H]1CCC2C3CCC4=CC(=O)CC[C@]4(C)C3CC[C@@]21C (stereo not given in full)", 0.987],
  ["CC1=C(CC(=O)O)c2cc(F)ccc2/C1=C\\c1ccc(S(C)=O)cc1 (stereo not given)", 1.02]
]}

Find the recorded normalized growth belonging to CS(=O)(=O)c1ccc(C2=C(c3ccccc3)C(=O)OC2)cc1 and report it. 0.992

* * *

Assay: chemical genetic growth profiling, strain panel (AID 1159580)
Details: S. cerevisiae deletion strains, growth OD, locus YOR083W, strain WHI5
About 2,000 (36%) of roughly 5,500 compounds were called active. About 18% were inconclusive and are not listed. Rule as the data show it: active = normalized growth mostly below about 0.91 (no sharp cut-off); inconclusive = no clear call, values can overlap the other calls; inactive = mostly above about 0.92. This is one part of the list.
Parameter call: string, one of class 1 = active, class 0 = inactive

{"columns": ["molecule", "answer label"],
 "data": [
  ["CC(C[N+](C)(C)C)OC(N)=O (stereo not given)", "class 0"]
]}

Record request — test call for CCN(CC)CCNC(=O)c1cc(Br)c(N)cc1OC class 0

And the next one, S=c1nc[nH]c2nc[nH]c12 ? class 0

And the next one, COc1cc(O)c(C(=O)/C=C/c2ccc(OC)c(O)c2)c(OC)c1 ? class 1

And the next one, CC(=O)OCC[N+](C)(C)C ? class 0

And the next one, CC(=O)OC(C)(C)[C@@H]1Cc2cc3ccc(=O)oc3cc2O1 ? class 0

And the next one, CC(NCCc1ccc(O)cc1)C(O)c1ccc(O)cc1 (stereo not given) ? class 0

And the next one, COc1cc2c(cc1OC)C(=O)OC2 ? class 0

And the next one, CC(Oc1ccccc1)C(=O)N[C@@H]1C(=O)N2[C@@H]1SC(C)(C)[C@@H]2C(=O)O (stereo not given in full) ? class 0

And the next one, CS(=O)(=O)c1ccc(C2=C(c3ccccc3)C(=O)OC2)cc1 ? class 0

And the next one, CCOC(=O)C(C)(C)Oc1ccc(Cl)cc1 ? class 0

* * *

Experiment: chemical genetic growth profiling, strain panel (AID 1159580)
Conditions: S. cerevisiae deletion strains, growth OD, locus YJR016C, strain ILV3
Screen size: about 5,500 compounds; about 2,000 (36%) were called active. Another 18% or so got no clear call; they are omitted. No stated cut-off is given here; in the data, active means normalized growth mostly below about 0.91 (no sharp cut-off); inconclusive means no clear call, values can overlap the other calls; inactive means mostly above about 0.92. The list shows a part of the results.
Parameter call: string, one of 1.0 for active, 0.0 for inactive

{"columns": ["compound", "answer label"],
 "data": [
  ["O=c1c(Sc2ccc(Cl)cc2)c(Sc2ccc(Cl)cc2)c1=O", 0.0],
  ["COc1cc2c(cc1OC)C(C)N(C(=O)c1sc3ccccc3c1Cl)CC2 (centres undefined)", 0.0],
  ["OC1(C(F)(F)F)CC(C23CC4CC(CC(C4)C2)C3)=NN1 (centres undefined)", 1.0]
]}

Record request — test call for COc1cc(NC(=S)NNS(=O)(=O)c2ccc(C)cc2)c(OC)cc1Cl 0.0

And the next one, COc1ccc(CN2CSC(=S)N(Cc3ccc(OC)cc3)C2)cc1 ? 0.0

And the next one, Cc1ccc(Sc2c(Sc3ccc(C)cc3)c(=O)c2=O)cc1 ? 0.0

And the next one, S=C(Nc1ccc(Cl)cc1Cl)N(c1cccc(Cl)c1)c1nc2ccccc2s1 ? 0.0

And the next one, COc1ccc(NNC(=O)c2sc3ccccc3c2Cl)cc1 ? 0.0

And the next one, O=C1C(=O)N(CN2CCc3c([nH]c4ccccc34)C2C(F)(F)F)c2ccc(F)cc21 (centres undefined) ? 0.0

* * *

Assay: chemical genetic growth profiling, strain panel (AID 1159580)
Conditions: S. cerevisiae deletion strains, growth OD, locus YOR106W, strain vam3, hits give low values
The campaign covered roughly 5,500 compounds. About 2,000 (36%) were called active. About 18% were inconclusive and are not listed. The list shows a part of the results.
In plain terms, low normalized growth, meaning strictly below 1, gives Criterion met, and everything else gives Criterion not met.

{"columns": ["compound", "answer label"],
 "data": [
  ["CC(=O)OCC[N+](C)(C)C", "Criterion not met"],
  ["COc1cc(NC(C)CCCN)c2ncccc2c1 (stereo not given)", "Criterion met"],
  ["COCCc1ccc(OCC(O)CNC(C)C)cc1 (stereo not given)", "Criterion met"],
  ["CCCCCCCCCCCCCCCC(=O)OC/C=C(C)/C=C/C=C(C)/C=C/C1=C(C)CCCC1(C)C", "Criterion met"]
]}

Now turn to the next compound.
Hello, is normalized growth of the following compound strictly smaller than 1? CC(C[N+](C)(C)C)OC(N)=O (stereo not given) Criterion not met

* * *

Test: chemical genetic growth profiling, strain panel (AID 1159580)
Conditions: S. cerevisiae deletion strains, growth OD, locus YHR129C, strain ARP1, hits give low values
Out of some 5,500 compounds screened, about 2,000 (36%) were called active. Not shown: some 18% with an inconclusive outcome. The list shows a part of the results.
quantity name: normalized growth
Could you keep your reply to the number by itself?

// known answers, use as guide
{"columns": ["molecule", "normalized growth"],
 "data": [
  ["CC(=O)[C@H]1CCC2C3CCC4=CC(=O)CC[C@]4(C)C3CC[C@@]21C (stereo not given in full)", 0.973],
  ["CC(=O)C1CCC2C3CC(=O)C4=CC(=O)CCC4(C)C3CCC12C (stereo not given)", 0.985],
  ["CC1CC2C3CC(F)C4=CC(=O)C=CC4(C)C3(F)C(O)CC2(C)C1(O)C(=O)CO (stereo not given)", 1.01],
  ["Cc1cc(O)c(C=O)c(O)c1C(=O)O", 1.02]
]}

Find the recorded normalized growth belonging to CCOC(=O)c1c(C)cc(O)c(C)c1O and report it. 0.988

* * *

Test: chemical genetic growth profiling, strain panel (AID 1159580);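 note: tested at 20 µM; growth read once vehicle control cultures reached saturation at 30 °C; 1 = growth at the plate median or of vehicle wells; lower values mean less growth of the strain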
Details: S. cerevisiae deletion strains, growth OD, locus YDR159W, strain sac3, hits give low values
Hit rate of the full screen: of about 5,500 compounds, about 2,000 (36%) were called active. Another 18% or so got no clear call; they are omitted. The list shows a part of the results.
In plain terms, low normalized growth, meaning strictly below 1, gives 1, and everything else gives -1.

Hello, is normalized growth of the following molecule strictly smaller than 1? COc1cc(O)c(C(=O)/C=C/c2ccc(O)c(OC)c2)c(OC)c1 1

And the next one, CN1CCC(=C2c3ccccc3CCc3sccc32)CC1 ? 1

And the next one, CN1CCC(=C2c3ccccc3Sc3ccccc32)CC1 ? -1

And the next one, CN1CCC(=C2c3ccccc3CC(=O)c3sccc32)CC1 ? -1

And the next one, N=c1ccn2c(n1)O[C@@H]1C2O[C@H](CO)[C@H]1O (stereo partly specified) ? 1

* * *

The entries below come with measured normalized growth values attached.
Experiment: chemical genetic growth profiling, strain panel (AID 1159580);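 note: tested at 20 µM; growth read once vehicle control cultures reached saturation at 30 °C; 1 = growth at the plate median or of vehicle wells; lower values mean less growth of the strain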
Settings: S. cerevisiae deletion strains, growth OD, locus YLR342W, strain FKS1 (second series), hits give low values
The campaign covered roughly 5,500 compounds. About 2,000 (36%) were called active. Roughly 18% stayed inconclusive and do not appear here. The list shows a part of the results.
Could you keep your reply to the number by itself?

// known answers, use as guide
{"columns": ["smiles text", "measurement"],
 "data": [
  ["CN(C)c1ccc(C(=C2C=CC(=[N+](C)C)C=C2)c2ccc(N(C)C)cc2)cc1", 0.388],
  ["O=C1C=CC(=C(c2ccc(O)cc2)c2ccc(O)cc2)C=C1", 0.972],
  ["CCCCCCCCCCCCCCCC(=O)OC/C=C(C)/C=C/C=C(C)/C=C/C1=C(C)CCCC1(C)C", 0.993],
  ["CC(C)(OC(=O)c1ccccc1)[C@@H]1Cc2cc3ccc(=O)oc3cc2O1", 1.01]
]}

Next up:
Find the recorded normalized growth belonging to CC(=O)N[C@@H](CC(C)C)C(=O)O and report it. 0.973

* * *

The entries below come with measured normalized growth values attached.
Assay: chemical genetic growth profiling, strain panel (AID 1159580);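 note: tested at 20 µM; growth read once vehicle control cultures reached saturation at 30 °C; 1 = growth at the plate median or of vehicle wells; lower values mean less growth of the strain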
Details: S. cerevisiae deletion strains, growth OD, locus YLR357W, strain rsc2, hits give low values
The campaign covered roughly 5,500 compounds. About 2,000 (36%) were called active. Another 18% or so got no clear call; they are omitted. The list shows a part of the results.
Could you keep your reply to the number by itself?

{"columns": ["smiles text", "measurement"],
 "data": [
  ["COC1=C(OC)C(=O)C(C/C=C(\\C)CC/C=C(\\C)CC/C=C(\\C)CC/C=C(/C)CC/C=C(\\C)CC/C=C(\\C)CC/C=C(\\C)CC/C=C(\\C)CC/C=C(\\C)CCC=C(C)C)=C(C)C1=O", 0.987],
  ["c1ccc(N=Nc2ccccc2)cc1", 0.97],
  ["COc1ccc2c(C)cc(=O)oc2c1", 0.966]
]}

Find the recorded normalized growth belonging to Oc1cc(Cl)ccc1Oc1ccc(Cl)cc1Cl and report it. 0.118

And the next one, CC1=C(C/C=C(\C)CCC[C@H](C)CCC[C@H](C)CCCC(C)C)C(=O)c2ccccc2C1=O ? 1
